Listed next: entries and their corresponding inhibition at 5 µM.
target: recombinant GST-TEAD1 proteins (209 to 426 a.a.) (Homo sapiens); construct: recombinant GST-TEAD1 proteins (209 to 426 a.a.); assay: Evaluation of palmitoylation of TEAD protein; assay type: biochemical; details: 5 μM compound, 15 minutes preincubation, 3 μM alkyne palmitoyl-CoA 30 minutes, pH 6.4, vs DMSO control
Sequence (P28347 209-426): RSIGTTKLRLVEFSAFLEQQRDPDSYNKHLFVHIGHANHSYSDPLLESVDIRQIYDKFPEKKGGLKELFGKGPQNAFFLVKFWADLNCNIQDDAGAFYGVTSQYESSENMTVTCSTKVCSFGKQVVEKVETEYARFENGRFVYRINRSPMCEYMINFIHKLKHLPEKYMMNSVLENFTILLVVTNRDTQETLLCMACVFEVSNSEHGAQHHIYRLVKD

Illustrative cases are given below, each with its answer.
{"columns": ["Smiles Data", "Result"],
 "data": [
  ["C=CC(=O)Nc1cnc2c(c1)c(C)nn2-c1ccc(C(F)(F)F)c(C)c1", "40 to 80%"],
  ["C=CC(=O)Nc1cnc2c(c1)c(C)cn2-c1ccc(C2CCCCC2)cc1", "> 80%"],
  ["C=CC(=O)N(C)c1cnc2c(c1)c(C)nn2-c1ccc(OC(F)(F)F)cc1", "> 80%"],
  ["C=CC(=O)Nc1cnc2c(c1)c(Cl)cn2Cc1ccc(C(F)(F)F)cc1", "> 80%"],
  ["C=CC(=O)N(C)c1cnc2c(c1)c(C)nn2-c1ccc(C(F)(F)F)nc1", "40 to 80%"]
]}

Entry C=CC(=O)Nc1cnc2c(c1)c(C)cn2CC1CCC(F)(F)CC1 , tested on recombinant GST-TEAD1 proteins (209 to 426 a.a.) (Homo sapiens), has a reported inhibition at 5 µM of > 80%

Test item C=CC(=O)Nc1ccc2c(Br)nn(Cc3ccc(C(F)(F)F)cc3)c2c1 ; recombinant GST-TEAD1 proteins (209 to 426 a.a.) (Homo sapiens); reported inhibition at 5 µM was > 80%

Assay recombinant GST-TEAD1 proteins (209 to 426 a.a.) (Homo sapiens), sample C=CC(=O)Nc1cnc2ncn(Cc3ccc(C(F)(F)F)cc3)c2c1 , inhibition at 5 µM read: 40 to 80%

Given the compound C=CC(=O)Nc1cnc2c(n1)c(C)cn2Cc1ccc(C(F)(F)F)cc1 and test system recombinant GST-TEAD1 proteins (209 to 426 a.a.) (Homo sapiens), the measured inhibition at 5 µM is > 80%
